This collection of values is drawn from PubChem BioAssay (NCI).

- System: CAKI-1 renal
- experiment-notes: NCI-60 one-dose screen, 48 h
- measurement-context: 10 µM unless noted
This is part of a sample that, as a whole, favours compounds with a hit. Of some 83,000 tested, about 20% had one in any assay. Active and inactive are the calls of the source. Rule for the calls: active = growth percent below 10; inactive = the rest.
Outcome field: choose from 1 = active, -1 = inactive

Recorded results for 3 compounds are shown here.
compound	label
CS(=O)(=O)c1ccc(C(=O)N/N=C/c2ccccc2O)cc1	-1
Cc1cc(-c2ccccc2)on1	-1
O=C1Nc2ccc(Br)cc2/C1=N/c1nc(-c2ccccc2)cs1	-1

Proceed to the following item.
*Q* Lab log entry: "O=C1/C(=C/c2ccccc2)SC(=Nc2ccccc2)N1Nc1ccccc1" — outcome as called in the assay?
*A* -1
